These measurements were taken from paper PMC4301871.

biological target: T1, LATS1-b (Homo sapiens); experiment: ITC
T1 chain: YQGPPPPYPKHL
Reported Kd by item:
Answer with a number only, understood to be in µM.

{"columns": ["BINDER", "DISPLAY_UNIT", "Kd"],
 "data": [
  ["FEIPDDVPLPAGWEMAKTSSGQRYFLNHIDQTTTWQDPRKAMLSQ [YAP-WW1 165-209]", "µM", 3.7]
]}

Now consider a different binder.
Short answer for ASGPLPDGWEQAMTQDGEIYYINHKNKTTSWLDPRLDPRFAMNQ [YAP-WW2 228-271] : Kd was 33.9
